Cited source for all entries: paper PMC13494018

- target system: CD276, Q5ZPR3
- Sequence (Q5ZPR3 whole entry): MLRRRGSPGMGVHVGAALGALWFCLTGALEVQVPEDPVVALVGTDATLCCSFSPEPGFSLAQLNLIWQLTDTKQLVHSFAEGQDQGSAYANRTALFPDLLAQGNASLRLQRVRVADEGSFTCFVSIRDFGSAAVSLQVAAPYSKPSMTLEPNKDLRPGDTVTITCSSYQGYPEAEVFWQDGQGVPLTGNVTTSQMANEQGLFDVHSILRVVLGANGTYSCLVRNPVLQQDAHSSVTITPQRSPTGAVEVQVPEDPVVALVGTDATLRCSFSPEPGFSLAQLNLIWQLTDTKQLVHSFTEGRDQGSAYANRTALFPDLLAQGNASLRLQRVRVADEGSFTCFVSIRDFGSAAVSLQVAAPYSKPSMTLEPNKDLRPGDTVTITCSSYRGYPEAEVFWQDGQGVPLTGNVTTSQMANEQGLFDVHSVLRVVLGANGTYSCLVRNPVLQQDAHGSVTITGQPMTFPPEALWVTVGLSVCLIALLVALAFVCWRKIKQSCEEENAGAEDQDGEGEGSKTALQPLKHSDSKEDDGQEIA
measurement kind: binding in a display sort

d6r1_design_ppi_658_dldesign_0_cycle1_af2pred (protein) LEEELEKAKNEAKLLLAEAAATLLATDAKGQKAAQLLAAAIAYLDTDPEQALKDAKEALKLVPDSEKVKKALEATEKALELKKKI : not found (inactive)
d2r6_design_ppi_333_dldesign_0_cycle0_af2pred (protein) MEEEGKKKAEEALKKAEESLKLAKSGKKLKEAEKKFAEALSLMEEAKPYLNKNPEVNKKLSKKLGEAAKALIAAKA : not found (inactive)
d6r1_design_ppi_848_dldesign_0_cycle0_af2pred (protein) AAAETGLKILEATVQALLKNASKYSAEAVKKLSEVLKASAEAEAKAGGEKLKERAKEIKKLAEEAEKKAKEAAKAKAE : not found (inactive)
